Target: T1, KIX domain from the human CREB binding protein (KIX wt) (human, UniProt Q92793 587-672)
T1 construct: domain: KIX domain; Expressed as GST fusion in E. coli, GST removed by PreScission cleavage
T1 sequence (Q92793 587-672 limits assumed): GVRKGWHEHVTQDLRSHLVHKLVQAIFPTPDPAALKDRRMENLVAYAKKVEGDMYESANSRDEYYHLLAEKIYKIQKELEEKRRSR
Test: fluorescence polarization, FITC-labeled MLL peptide, protein titrated 70 µM-0 µM
Non-standard residues stand in square brackets, D forms with d. *: point of attachment. FITC = O=C1OC2(c3ccc(O)cc3Oc3cc(O)ccc32)c2ccc(NC(=S)*)cc21; Nle = CCCC[C@H](N)C(=O)O; AEEA = NCCOCCOCC(=O)O
READOUT_LABEL: pKd
# pKd is unitless: minus log10 of the molar concentration; print number only

Q. For the binder shown here, {FITC-AEEA}-GNILPSDI[Nle]DFVLKNTP-NH2 (Synthetic peptide made by Fmoc SPPS on Rink amide resin; Used at 10 nM final (5 uL of 40 nM in 20 uL) in the FP assay; also called mixed lineage leukemia (MLL) transcription factor derived peptide) [MLL peptide FITC-O2Oc-GNILPSDI(Nle)DFVLKNTP-NH2] , give the reported pKd.
A. 6.22
